Below, each of the molecules is paired with its reported log10 of EC50 value.
- Test system: α-smooth muscle actin (aSMA) positive LL29 cells
- Assay notes: Inhibition of the fibrotic process: αSMA staining in TGF-β1 treated LL29 fibroblasts from IPF patients
- Setup conditions: Homo sapiens, Fibroblast, 96 h
Record value = log10 of EC50 given in µM.

Retrieve log10 of EC50 measured for CC(C(=O)Nc1ncc2ccc(-c3cnn(C)c3)cc2n1)N1CCCCC1 (stereo not shown) and print it.
0.44

Retrieve log10 of EC50 measured for Cc1nnc(-c2ccc3cnc(NC(=O)c4ccnc(N5CCN(C)CC5)c4)nc3c2)s1 and print it.
0.25

###

- Study system: DYRK1A kinase (Homo sapiens, UniProt Q13627)
- Assay notes: DYRK1A kinase activity (Ser/Thr 18 peptide Z-lyte FRET assay);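 note: kinase activity read as coumarin/fluorescein emission ratio after development step, with unphosphorylated and phosphorylated peptide forms setting 0% and 100% controls, values from dose-response curves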
- Setup conditions: recombinant DYRK1A, 30 μM ATP, one hour at room temperature
Quantity name: EC50 (nM)
Quick note: give the figure in nM, leave out the unit.

CN(CC(=O)Nc1cc2nc(-c3cnn(C)c3)ccc2cn1)C1CCC1	21

Quote DYRK1A kinase (Homo sapiens, UniProt Q13627) EC50 for entry Cn1cc(-c2cnc3cnc(NC(=O)c4ccc(OC5CCNCC5)cc4)cc3c2)cn1 .
39

Quote DYRK1A kinase (Homo sapiens, UniProt Q13627) EC50 for entry CN1CCN(c2cc(C(=O)Nc3cc4cc(-c5ccc(N)nc5)cnc4cn3)ccn2)CC1 .
294

###

- Study system: UniProtKB P49841
- Assay notes: GSK3β kinase activity (Ser/Thr 09 peptide Z-lyte FRET assay)
- Type: biochemical
- Setup conditions: recombinant kinase, 46 μM ATP, one hour at room temperature; read-out: EC50
pEC50: −log10 of the molar value.
Grouping by measured pEC50 is done with the following cut points: low band = under 6, middle band = from 6 up to 7, high band = 7 and over

Some solved entries appear below for comparison.
Cc1ncc(-c2ccc3cnc(NC(=O)c4cccnc4)cc3n2)s1 [Compound 642]	low band
C[C@H]1CCCN1CC(=O)Nc1cc2nc(-c3cnn(C)c3)ccc2cn1 [Compound 47]	middle band
C[C@H]1CCCN1CC(=O)Nc1ncc2ccc(-c3cnn(C)c3)cc2n1 [Compound 954]	middle band
O=C(Nc1cc2cc(-c3cncs3)ncc2cn1)C1CCN(C2COC2)CC1 [Compound 4244]	high band
Cn1cc(-c2cnc3cnc(NC(=O)C4CCN(Cc5ncco5)CC4)cc3c2)cn1 [Compound 2816]	low band
CN1CCCN(CC(=O)Nc2cc3cc(-c4cnn(C)c4)ncc3cn2)CC1 [Compound 3733]	high band
Nc1cncc(-c2cnc3cnc(NC(=O)c4ccc(OC5CCNCC5)cc4)cc3c2)c1 [Compound 3524]	low band
Cn1cc(-c2cc3cc(NC(=O)C4CCN(S(C)(=O)=O)CC4)ncc3cn2)cn1 [Compound 3699]	high band

Assign a bin to Cc1cn2c(n1)CN(C(=O)Nc1ncc3ccc(-c4cnc(C)o4)cc3n1)CC2 [Compound 1491]
middle band

Assign a bin to Cc1nnc(-c2cnc3cnc(NC(=O)C4CCN(C(=O)c5ccccc5)CC4)cc3c2)s1 [Compound 3439]
middle band

Assign a bin to Cn1cc(-c2ccc3cnc(NC(=O)C4CCN(Cc5ncccn5)CC4)nc3c2)cn1 [Compound 1007]
middle band

###

- Study system: GSK3β kinase (Homo sapiens)
- Sequence (P49841 whole entry): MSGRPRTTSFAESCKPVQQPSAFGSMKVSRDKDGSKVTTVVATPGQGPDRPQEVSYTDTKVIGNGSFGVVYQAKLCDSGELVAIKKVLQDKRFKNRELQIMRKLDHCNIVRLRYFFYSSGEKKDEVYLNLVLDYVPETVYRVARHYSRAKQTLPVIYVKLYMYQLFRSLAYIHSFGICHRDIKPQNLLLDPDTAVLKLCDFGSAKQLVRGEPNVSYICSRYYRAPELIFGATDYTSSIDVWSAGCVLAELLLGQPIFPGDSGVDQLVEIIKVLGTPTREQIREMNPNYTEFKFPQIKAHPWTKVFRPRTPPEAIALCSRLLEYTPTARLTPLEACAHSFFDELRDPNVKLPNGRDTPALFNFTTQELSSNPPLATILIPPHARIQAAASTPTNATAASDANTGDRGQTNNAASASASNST
- Assay notes: GSK3β kinase activity (Ser/Thr 09 peptide Z-lyte FRET assay)
- Assay type: biochemical
- Setup conditions: recombinant kinase, 46 μM ATP, one hour at room temperature; read-out: EC50
Below, each of the molecules is paired with its reported EC50 value.
Quick note: give the figure in nM, leave out the unit.

Solved entries (count: 5):
CN1CCC(Nc2cncc(C(=O)Nc3cc4cc(-c5cnn(C)c5)ncc4cn3)c2)CC1	2340
CN(C)Cc1ccc(C(=O)Nc2cc3cc(-c4cnn(C)c4)ncc3cn2)cc1	409
C[C@H]1CCCN1CC(=O)Nc1cc2cc(-c3cnn(C)c3)cnc2cn1	2520
CN1CCN(c2cc(C(=O)Nc3ncc4ccc(-c5cncs5)cc4n3)ccn2)CC1	207
CC(C)OCCC(=O)Nc1ncc2ccc(-c3cncn3C)cc2n1	94

Retrieve EC50 measured for Cn1cc(-c2cc3cc(NC(=O)c4ccc5nccnc5c4)ncc3cn2)cn1 and print it.
1160

Retrieve EC50 measured for CN1CCN(Cc2cccc(C(=O)Nc3cc4nc(-c5cnn(C)c5)ccc4cn3)c2)CC1 and print it.
765

Retrieve EC50 measured for Cn1cc(-c2cc3cc(NC(=O)CC4CNCCO4)ncc3cn2)cn1 (stereo not drawn) and print it.
8

Retrieve EC50 measured for CN1CCN(c2cccc(C(=O)Nc3ncc4ccc(-c5cnn(C)c5)cc4n3)c2)CC1 and print it.
661

Retrieve EC50 measured for Cn1cc(-c2cc3cc(NC(=O)C4CCN(Cc5ncccn5)CC4)ncc3cn2)cn1 and print it.
18

Retrieve EC50 measured for O=C(Nc1ncc2ccc(-c3cncs3)cc2n1)[C@H]1CC[C@H](CN2CC(F)C2)CC1 and print it.
772

Retrieve EC50 measured for Cn1ncc(-c2ccc3cnc(NC(=O)c4ccnc(N5CCOCC5)c4)nc3c2)c1CN1CCOCC1 and print it.
5600

Retrieve EC50 measured for Cn1cc(-c2cc3cc(NC(=O)c4ccnc(N5CCNCC5)c4)ncc3cn2)cn1 and print it.
852

###

- Tested on: α-smooth muscle actin (aSMA) positive LL29 cells
- Assay notes: Inhibition of the fibrotic process: αSMA staining in TGF-β1 treated LL29 fibroblasts from IPF patients
- Setup conditions: Homo sapiens, Fibroblast, 96 h
Below, each of the compounds is paired with its reported log10 of EC50 value.
Record value = log10 of EC50 given in µM.

Solved entries (count: 4):
Cn1cncc1-c1ccc2cnc(NC(=O)c3ccc4c(c3)CNC4)cc2n1 [Compound 477]	-0.20
N#CC(c1cncc(-c2ccc3cnc(NC(=O)C4CC4)nc3c2)c1)N1CCC(O)CC1 (stereo not drawn) [Compound 4594]	0.51
CC(C)CN1CCC(C(=O)Nc2cc3nc(-c4cnn(C)c4)ccc3cn2)CC1 [Compound 16]	-0.60
CN1CCC(Oc2cccc(C(=O)Nc3cc4cc(-c5cnco5)cnc4cn3)c2)CC1 [Compound 3311]	0.16

Attention now shifts to the item below.
Retrieve log10 of EC50 measured for CN1CCC(C(=O)Nc2cc3cc(-c4cnsc4)ncc3cn2)CC1 [Compound 4319] and print it.
0.21

###

- System: SW480 colon carcinoma cells
- Assay notes: Cell viability assay (CellTiter-Glo)
- Setup conditions: Homo sapiens, SW480, read-out: percent inhibition at 10 μM
Below, each of the compounds is paired with its reported inhibition at 10 µM value.
Quick note: give the figure in %, leave out the unit.

Solved entries (count: 5):
O=C(Nc1cc2nc(-c3cncc(NC4CCNCC4)n3)ccc2cn1)C1CCOCC1	11.7
Cn1cc(-c2cc3cc(NC(=O)C(C)(C)F)ncc3cn2)nn1	38.5
Cc1ncc(-c2ccc3cnc(NC(=O)C4CCN(C5COC5)CC4)cc3n2)s1	37.5
O=C(Nc1cc2nc(-c3cncc(NCC4(F)CNC4)n3)ccc2cn1)C1CC1	33.5
Cn1cc(-c2ccc3cnc(NC(=O)CC4CNCCO4)nc3c2)cn1 (stereo not drawn)	24.8

Retrieve inhibition at 10 µM measured for Cn1cc(-c2cnc3cnc(NC(=O)[C@H]4CCCN4)cc3c2)cn1 and print it.
18.8

Retrieve inhibition at 10 µM measured for Cn1cnnc1-c1ccc2cnc(NC(=O)C3CCN(CCC(F)(F)F)CC3)nc2c1 and print it.
35.1

Retrieve inhibition at 10 µM measured for Cn1cc(-c2ccc3cnc(NC(=O)[C@H]4CCCN4)cc3n2)cn1 and print it.
38.3

Retrieve inhibition at 10 µM measured for CC(C)CN1CCC(C(=O)Nc2cc3cc(-c4nnnn4C)cnc3cn2)CC1 and print it.
8.3

Retrieve inhibition at 10 µM measured for Cn1cc(-c2ccc3cnc(NC(=O)C4CCN(Cc5ncccn5)CC4)cc3n2)cn1 and print it.
37

Retrieve inhibition at 10 µM measured for CN(C)[C@H]1CC[C@H](C(=O)Nc2cc3cc(-c4cncs4)cnc3cn2)CC1 and print it.
36.1

###

Below, each of the compounds is paired with its reported EC50 value.
- Study system: DYRK1A kinase (Homo sapiens)
- Assay notes: DYRK1A kinase activity (Ser/Thr 18 peptide Z-lyte FRET assay)
- Setup conditions: recombinant DYRK1A, 30 μM ATP, one hour at room temperature
Quick note: give the figure in nM, leave out the unit.

Solved entries (count: 2):
CO[C@H]1CC[C@H](C(=O)Nc2cc3cc(-c4nnc(C)s4)cnc3cn2)CC1 [Compound 3425]	157
Cc1ncc(-c2ccc3cnc(NC(=O)[C@H]4CC[C@H](CO)CC4)nc3c2)o1 [Compound 1447]	56

Attention now shifts to the item below.
Retrieve EC50 measured for C[C@H]1CCCN1CC(=O)Nc1cc2cc(-c3cnn(C)c3)cnc2cn1 [Compound 2767] and print it.
34

###

- Tested on: SW480 colon carcinoma cells
- Assay notes: Cell viability assay (CellTiter-Glo)
- Setup conditions: Homo sapiens, SW480, read-out: percent inhibition at 10 μM
Quantity name: inhibition at 10 µM (%)
Quick note: give the figure in %, leave out the unit.

CNC(=O)c1ccc(C(=O)Nc2cc3nc(-c4cn(C)nn4)ccc3cn2)cn1 [Compound 372]	23.2
CC(C)OCCC(=O)Nc1ncc2ccc(-c3cncn3C)cc2n1 [Compound 1322]	22.2
Cn1cc(-c2ccc3cnc(NC(=O)[C@H]4CC[C@H](N)CC4)cc3n2)cn1 [Compound 41]	31.8
Cn1cc(-c2ccc3cnc(NC(=O)C4CCN(CC5(C(F)(F)F)CC5)CC4)cc3n2)nn1 [Compound 347]	10.7
Cn1cc(-c2ccc3cnc(NC(=O)C(C)(C)F)nc3c2)nn1 [Compound 1239]	17.2

Quote SW480 colon carcinoma cells inhibition at 10 µM for entry Cc1ncc(-c2ccc3cnc(NC(=O)C4CCN(CC(C)(F)F)CC4)nc3c2)o1 [Compound 1471] .
11.3

Quote SW480 colon carcinoma cells inhibition at 10 µM for entry CN(CC(=O)Nc1ncc2ccc(-c3cnn(C)c3)cc2n1)C1CCC1 [Compound 963] .
27.9

Quote SW480 colon carcinoma cells inhibition at 10 µM for entry CC(C)OCCC(=O)Nc1cc2nc(-c3cncn3C)ccc2cn1 [Compound 416] .
52.1

Quote SW480 colon carcinoma cells inhibition at 10 µM for entry CNC(=O)c1ccc(C(=O)Nc2cc3cc(-c4cn(C)nn4)ncc3cn2)cn1 [Compound 3999] .
27.3
